# credit: patent US20220267421A1

target: T1, human MSLN-His-Avi (human, UniProt Q13421 296-598, single biotin (BirA) in the biotinylated form); test: SPR as Example 4.1 (about 40 RU instead of 100), MSLN in solution
T1 construct: Monomeric, made in HEK293-6E; Used both immobilised and in solution; also called hMSLN-His-Avi; biotinylated hMSLN-His-Avi
T1 sequence (Q13421 other isoform, or with tags, fused parts or gaps): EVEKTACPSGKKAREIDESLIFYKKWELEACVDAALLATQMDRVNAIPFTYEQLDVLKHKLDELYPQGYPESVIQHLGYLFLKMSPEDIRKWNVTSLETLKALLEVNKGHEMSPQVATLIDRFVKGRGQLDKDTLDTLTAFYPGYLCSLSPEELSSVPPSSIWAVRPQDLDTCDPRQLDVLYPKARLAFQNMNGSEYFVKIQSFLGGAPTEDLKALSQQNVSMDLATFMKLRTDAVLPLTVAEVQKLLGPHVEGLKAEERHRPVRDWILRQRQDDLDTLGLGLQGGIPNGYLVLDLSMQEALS
propertyLabel: pKd
Remember, pKd is on a log scale: it is -log10 of the molar concentration.

Please review the entries below; each comes with its answer.
So what does the record say about pKd for FS28-256-273 (in CD137 mAb^2 format) (bispecific antibody, V domains shown) VH: EVQLLESGGGLVQPGGSLRLSCAASGFTFTHTYMSWVRQAPGKGLEWVSSISPTYSTTNYADSVKGRFTISRDNNKNTLYLQMNSLRAEDTAVYYCARYNAYHAALDYWGQGTLVTVSS VL: EIVLTQSPGTLSLSPGERATLSCRASQSVSSSYLAWYQQKPGQAPRLLIYGASSRATGIPDRFSGSGSGTDFTLTISRLEPEDFAVYYCQQTVPYPYTFGQGTKVEIK ?
8.13

So what does the record say about pKd for FS28-256-027 (in CD137 mAb^2 format, Table 6) (bispecific antibody, V domains shown) VH: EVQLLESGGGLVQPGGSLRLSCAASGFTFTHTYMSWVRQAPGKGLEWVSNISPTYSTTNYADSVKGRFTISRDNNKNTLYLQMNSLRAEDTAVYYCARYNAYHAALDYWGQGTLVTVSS VL: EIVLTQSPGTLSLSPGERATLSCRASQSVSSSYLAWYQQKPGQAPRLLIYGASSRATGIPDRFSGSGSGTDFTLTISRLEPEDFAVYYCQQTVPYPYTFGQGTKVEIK ?
8.49

Next:
So what does the record say about pKd for FS28-256-271 (in CD137 mAb^2 format) (bispecific antibody, V domains shown) VH: EVQLLESGGGLVQPGGSLRLSCAASGFTFTHTYMSWVRQAPGKGLEWVSAISPTYSTTNYADSVKGRFTISRDNNKNTLYLQMNSLRAEDTAVYYCARYNAYHAALDYWGQGTLVTVSS VL: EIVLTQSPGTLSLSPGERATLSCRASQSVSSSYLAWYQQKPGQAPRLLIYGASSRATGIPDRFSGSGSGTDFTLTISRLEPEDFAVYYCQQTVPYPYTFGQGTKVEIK ?
7.74
